Hey, just so you know, these numbers are from PubChem BioAssay (NCI).

Measured growth accompanies every entry in the list below.
# Test system: PC-3 prostate
# TEST NAME: NCI-60 one-dose screen, 48 h (100 = growth as untreated, 0 = no growth, -100 = all killed)
# EXPERIMENTAL CONTEXT: 10 µM unless noted
This is part of a sample that, as a whole, favours compounds with a hit. Of some 83,000 tested, about 20% had one in any assay.
# value in %; strip the unit string

O=C(CSc1nnc(-c2ccc(Cl)cc2)n1-c1ccccc1)Nc1ccc(Cl)cc1 | 61.4

Would you kindly share the measured growth for O=C(N/N=C/c1cc2ccccc2nc1Cl)c1cc(-c2nc3ccccc3[nH]2)nc2ccccc12 ?
81.6

Moving on to the next compound: CC(C)(C)Nc1nc2c(OCCc3ccccc3)cccn2c1-c1cccc(Oc2ccccc2)c1
17.5

Moving on to the next compound: C=C1CCc2nc(SCC(=O)O)ccc2N1
104

Moving on to the next compound: O=C1CSC(c2cn(-c3ccccc3)nc2-c2ccc(Cl)cc2)N1c1ccccc1 (stereo not given)
99.7

Moving on to the next compound: N#Cc1c(-c2cccs2)cc(-c2cnccn2)nc1SCC(=O)N/N=C/c1cccs1
53.6

Moving on to the next compound: Nc1ncc(-c2ccc3ncnc(NCc4ccccc4)c3c2)cn1
34.7

Moving on to the next compound: Fc1ccc(-c2cn3c(-c4c[nH]c5ccc(Br)cc45)csc3n2)cc1
73.6

Moving on to the next compound: Cc1nc(/N=C(N)/N=C(\N)c2cccc(Br)c2)sc1C
59.8

Moving on to the next compound: COc1ccc(/C=N/NC(=O)c2c(N)nn(C)c2Nc2ccccc2)cc1
55.9
